- Tested on: HCT-116
- Method: NCI tumour cell line growth inhibition, 48 h
Active and inactive are the calls of the source. No stated cut-off is given here; in the data, active = GI50 up to about 1.1 µM and inactive = higher.
Please respond with reported GI50 for every item in the list.

# annotated cases, reported GI50 shown
Compound	Assay target	GI50
O=C1CC2CCN(C(=O)c3ccccc3)CC2CCN1 (stereo not given)	HCT-116	> 100 µM (inactive)
CC[C@@]1(O)C(=O)OCc2c1cc1n(c2=O)Cc2c-1nc1ccccc1c2/C=N/NC(=O)C[N+](C)(C)C	HCT-116	2.3 µM (inactive)
COc1ccc2c(c1)CCc1[nH]c3ccccc3c1CCCC2	HCT-116	> 10 µM (inactive)
Brc1cccc(Nc2ncnc3sc4c(c23)CCC2(C4)OCCO2)c1	HCT-116	27.2 µM (inactive)

GI50 recorded for this compound, `CCOC(=O)C1=NN(c2ccc(C)cc2)C2=CC(C)=NN(C)C(=S)N21` , is 31.1 µM (inactive)
